test: in vitro; conditions: human, % of cell viability compared to control, 3. measurement, HepG2, 50 µM
OBSERVABLE: viability at 50 µM (%)
Provide the reading as a plain figure in %.

Study these solved cases before continuing.
# COMPOUND, UNIT TAG, viability at 50 µM
data = [
    ("COc1ccc2cc3[n+](cc2c1OCc1ccc(Br)cc1)CCc1cc2c(cc1-3)OCO2 [16g, 9-O-(4-brombenzyl)berberine chloride]", "%", 45.5),
    ("COc1ccc2cc3[n+](cc2c1OCc1cccc(Cl)c1)CCc1cc2c(cc1-3)OCO2 [16h, 9-O-(3-chlorbenzyl)berberine chloride]", "%", 15.6),
]

Could you now look at the following compound, please?
Prompt: Bench note: what viability at 50 µM did COc1ccc2cc3[n+](cc2c1OCc1ccccc1Br)CCc1cc2c(cc1-3)OCO2 [16e, 9-O-(2-brombenzyl)berberine chloride] show?
Completion: 2.75
